Measured values drawn from PubChem BioAssay (EPA / NIEHS) for this set.

Read-out: Interleukin 6 (IL6), IL6 (gene 3569)
method-description: BSK_BT_xIL6: BioMAP Diversity Plus: BT Assay for Interleukin 6 (IL6) Biomarker Activity (AID 2284228)
cond: primary human B cells with PBMC
Activity calls are given as the source filed them. Rule for the calls: active = hit-call score of the fitted dose curve at least 0.9, where 1 is the maximum; inactive = score below 0.9.
Possible outcomes: active, inactive

1. O=C1CCCCCCCCCCCN1 | inactive
2. Oc1ccc(/C=C/c2cc(O)cc(O)c2)cc1 | active
3. CC(C)c1cccc(C(C)C)c1N | inactive
4. CC=C(C)C(C)=O | inactive
5. CCOC(=O)C1=NN(c2ccc(Cl)cc2Cl)C(C)(C(=O)OCC)C1 (stereo not drawn) | inactive
6. Clc1cc(Cl)c(Cl)c(Cl)c1Cl | inactive
7. O=C1CCCCCCCCCCC1 | inactive
8. CCCCCC1=CCCC1=O | inactive
9. CC(c1cc(C(C)(C)C)cc(C(C)(C)C)c1O)c1cc(C(C)(C)C)cc(C(C)(C)C)c1O | active
10. Oc1c(Cl)cc(Cl)c(Cl)c1Cl | inactive
11. c1ccc2c(c1)[nH]c1ccccc12 | inactive
12. Cc1c(O)cccc1O | inactive
13. CC=C(C)C=CC=C(C)C | active
14. CCCCCCOC(=O)CCCCC(=O)OCCCCCC | inactive
15. CCCCCCCCCCCC(C)=O | inactive
16. CC(C)[N+](C)(CCOC(=O)C1c2ccccc2Oc2ccccc21)C(C)C | inactive
17. CCc1cccc(C)c1N(C(=O)CS(=O)(=O)O)C(C)COC (stereo not drawn) | inactive
18. CC1=CC=C(C(C)C)CC1 | inactive
19. O=C(Oc1ccccc1)c1ccccc1C(=O)Oc1ccccc1 | inactive
20. CCCCCCCO | inactive
21. COc1ccc(C(=O)/C(Br)=C\C(=O)O)cc1 | active
22. C=CC(=O)OCCCCCCOC(=O)C=C | active
23. C[N+](C)(C)CCCNS(=O)(=O)C(F)(F)C(F)(F)C(F)(F)C(F)(F)C(F)(F)C(F)(F)C(F)(F)C(F)(F)F | inactive
24. CCN1CN(CC)CN(CC)C1 | inactive
25. Fc1ccc(Br)cc1 | inactive
26. CC(Cl)COP(=O)(OCC(C)Cl)OCC(C)Cl (stereo not drawn) | inactive
27. CCCCC1C(=O)N(c2ccccc2)N(c2ccccc2)C1=O | inactive
28. CCOC(=O)C1=NOC(c2ccccc2)(c2ccccc2)C1 | active

====

method-description: ATG_DR4_LXR_CIS: Attagene CIS-FACTORIAL HepG2 Assay for human Liver X Receptor (LXR), DR4 submotif (AID 2282929)
cond: HepG2 Attagene DR4 cis-reporter, mRNA transcription; actives raise or lower the signal
Active and inactive are the calls of the source. How the source made its calls: active means hit-call score of the fitted dose curve at least 0.9, where 1 is the maximum; inactive means score below 0.9.
Possible outcomes: y = active, n = inactive

1) C=C(C)OC(C)=O | n
2) Oc1ccccc1Cc1ccccc1O | y
3) Nc1ccnc(=O)[nH]1 | n
4) CCCCCCOC(=O)CCCCC(=O)OCCCCCC | n
5) CCC[Si](OC)(OC)OC | n
6) CCOC(=O)C1=NOC(c2ccccc2)(c2ccccc2)C1 | n
7) CCCCOCCOCCOC(C)=O | n
8) CC(C)=CCCC(C)=CC#N | n
9) Cc1cc(C)c(C=O)c(C)c1 | n
10) CC1=CP(=O)(c2ccccc2)CC1 (stereo not given) | n

====

Read-out: Tissue plasminogen activator (tPA), PLAT (gene 5327)
method-description: BSK_BE3C_tPA: BioMAP Diversity Plus: BE3C Assay for Tissue plasminogen activator (tPA) Biomarker Activity (AID 2283041)
cond: primary human bronchial epithelial cells; actives raise or lower the signal
Calls of active or inactive are those of the source. The calls were made as follows: active = hit-call score of the fitted dose curve at least 0.9, where 1 is the maximum; inactive = score below 0.9.
Possible outcomes: yes (active), no (inactive)

1) CCOC(=O)C1=NOC(c2ccccc2)(c2ccccc2)C1 | no
2) Clc1cc(Cl)c(Cl)c(Cl)c1Cl | no
3) COc1ccc(C(=O)c2ccccc2)c(O)c1 | no
4) CCCCC1C(=O)N(c2ccccc2)N(c2ccccc2)C1=O | no
5) CC(C)C(=O)OCCc1ccccc1 | no
6) CCCCCCOC(=O)CCCCC(=O)OCCCCCC | no
7) c1ccc2c(c1)[nH]c1ccccc12 | no
8) C=CC(=O)OCCCCCCOC(=O)C=C | no
9) CCCCCC1=CCCC1=O | no
10) CCOC(=O)C1=NN(c2ccc(Cl)cc2Cl)C(C)(C(=O)OCC)C1 (centres undefined) | no
11) Fc1ccc(Br)cc1 | no
12) Oc1c(Cl)cc(Cl)c(Cl)c1Cl | no
13) CCC1(C)C(=O)N(Cl)C(=O)N1Cl (centres undefined) | no
14) c1ccc2sc(SSN3CCOCC3)nc2c1 | yes

====

method-description: ATG_NRF2_ARE_CIS: Attagene CIS-FACTORIAL HepG2 Assay for human Nuclear Factor Erythroid 2 Related Factor 2 (NFR2) response to Antioxidant Response Elements (ARE) (AID 2282992)
cond: HepG2 Attagene ARE/NRF2 reporter, transcription factor activity; actives raise or lower the signal
Active and inactive are the calls of the source. How the source made its calls: active means hit-call score of the fitted dose curve at least 0.9, where 1 is the maximum; inactive means score below 0.9.
Possible outcomes: true = active, false = inactive

1. C=CC(=O)OCCCCCCOC(=O)C=C | true
2. CCCCCCCCCCCCCc1ccccc1 | false
3. CCCCCC[C@@H](O)C/C=C\CCCCCCCC(=O)OCC(O)CO (some centres not stated) | true
4. OCCCc1ccccc1 | false
5. CCOC(=O)c1ccc(C)cc1 | false
6. O=C(O)C1CCC(C(=O)O)CC1 (configuration not stated) | false
7. Nc1ccc(C(=O)O)cc1 | false
8. CCCCCC(=O)OCC | false
9. CC(=O)CC(=O)Nc1ccccc1C | false
10. c1ccc(-c2nc3ccccc3[nH]2)cc1 | false
11. CC(C)(c1ccccc1)c1ccc(Nc2ccc(C(C)(C)c3ccccc3)cc2)cc1 | false
12. C=CC(=O)NCOCCCC | true
13. C=Cc1ccc(OC(C)=O)cc1 | true
14. O=C1CCCCCCCCCCCN1 | false
15. CC(C)OC(=O)c1ccccc1 | false
16. Cc1ccc2c(c1)CCCN2 | false
17. CC1C(C)(C)C2=C(C(=O)CCC2)C1(C)C (configuration not stated) | false
18. Nc1cccc(N)n1 | false
19. CN1CCN(C)CC1 | false
20. O=S(=O)(O)c1ccc(N=Nc2c(O)ccc3ccccc23)cc1 | true
21. O=C(O)c1cc(O)c2ccccc2c1O | true
22. CCC(C)N (configuration not stated) | false
23. CC(C)(CO)C(O)C(=O)NCCCO (configuration not stated) | false
24. C=C(C)C(=O)OCCCCCCCCCCCC | false
25. CC=CC(=O)OCC(C)C | false
26. NNS(=O)(=O)c1ccc(Oc2ccc(S(=O)(=O)NN)cc2)cc1 | false
27. CC(=O)OC(C)c1ccccc1 (configuration not stated) | false
28. CC/C=C\CCOC(=O)c1ccccc1O | true
29. O=C(O)CCC(=O)O | false
30. CC1(C)CC(O)CC(C)(C)N1[O] | true
31. CC(C)=CCl | false
32. CC(C)C(=O)OCCc1ccccc1 | false

====

Tested on: Sodium/Iodide Symporter (NIS), SLC5A5 (gene 6528)
method-description: CPHEA_Stoker_NIS_Inhibition_RAIU: CPHEA's Radioactive Iodide Uptake (RAIU) Assay for Sodium/Iodide Symporter (NIS) Inhibition, Stoker and Laws Labs (AID 2283841)
Results filed as inconclusive are left out. The source made the active and inactive calls. Rule for the calls: active = hit-call score of the fitted dose curve at least 0.9, where 1 is the maximum; inconclusive = response in the unintended direction; inactive = score below 0.9.
Possible outcomes: true (1) for active, false (0) for inactive

1. O=C(Oc1ccccc1)c1ccccc1O | false (0)
2. COc1ccc(C(=O)c2ccccc2)c(O)c1 | false (0)
3. CO[Si](C)(C)OC | false (0)
4. c1ccc(Nc2cccc3ccccc23)cc1 | true (1)

====

tgt: Myc proto-oncogene protein (Homo sapiens)
method-description: ATG_Myc_CIS: Attagene CIS-FACTORIAL HepG2 Assay for human Myelocytomatosis (Myc) Proto-Oncogene Transcription Factor (AID 2282990)
cond: HepG2, Attagene cis-reporter transcription factor activity; actives raise or lower the signal
Activity calls are given as the source filed them. How the source made its calls: active means hit-call score of the fitted dose curve at least 0.9, where 1 is the maximum; inactive means score below 0.9.
Possible outcomes: 1 (active), -1 (inactive)

1) C=C[C@@]1(C)CC(=O)[C@]2(O)[C@@]3(C)[C@@H](O)CCC(C)(C)[C@@H]3[C@H](O)[C@H](OC(C)=O)[C@@]2(C)O1 | -1
2) CC(C)CCCCCOC(=O)CS | -1
3) CC(CC=O)CC(C)(C)C (stereo not drawn) | -1
4) CCCCCCCCCCCCCCCCCCOS(=O)(=O)O | -1
5) Nc1cccc(N)n1 | -1
6) CC(CCC(=O)O)(c1ccc(O)cc1)c1ccc(O)cc1 | -1
7) C=CC(=O)OCCCCCCCCCC | -1
8) C1CNCCN1 | -1
9) CCCCC(C=O)CC (stereo not drawn) | -1
10) Cc1c(C(=O)c2c[nH]n(C)c2=O)ccc(S(C)(=O)=O)c1C1=NOCC1 | -1
11) CCCCCCCCC(CO)CCCCCC (stereo not drawn) | 1
12) Nc1ccc(C(=O)OCCCOC(=O)c2ccc(N)cc2)cc1 | -1
13) c1ccc2sc(SSN3CCOCC3)nc2c1 | 1
